Origin of measurements: patent US10577363B2

Target: SMYD3 (Homo sapiens (Human))
Assay: SMYD3 biochemical assay (SPA, 3H-SAM methylation of MEKK2 protein substrate)
Conditions: read-out: SMYD3 Biochem IC50 (μM)*
quantity: log10 of IC50 (log10 of the value in µM)
Kindly note that the scale is log10 and the underlying IC50 is in µM.

// query Could you please provide reported log10 of IC50 for "O=C(N[C@@H]1CCN(S(=O)(=O)CCN2CCCC2)[C@@H](Cc2ccccc2)C1)c1cc(C2CC2)on1" ? Thanks!
// result 0.53

// query Could you please provide reported log10 of IC50 for NCCCC(=O)N1CCC(NC(=O)c2cc(C3CC3)on2)CC12CCCCC2 (stereo not drawn) ? Thanks!
// result 0.81

// query Could you please provide reported log10 of IC50 for "CN1CCC(C(=O)N2CCC(NC(=O)c3cc(C4CC4)on3)CC2)CC1" ? Thanks!
// result 1.00

// query Could you please provide reported log10 of IC50 for C[C@H]1CC(NC(=O)c2cc(C3CC3)on2)CCN1C(=O)CCCN (stereo partly drawn) ? Thanks!
// result 0.56

// query Could you please provide reported log10 of IC50 for "CCCS(=O)(=O)N1CC[C@H](NC(=O)c2cc(C3CC3)on2)C[C@@H]1C" ? Thanks!
// result -0.06

// query Could you please provide reported log10 of IC50 for "NC[C@H](Cc1ccc(O)c(C(F)(F)F)c1)C(=O)N1CCC(NC(=O)c2cc(C3CC3)on2)CC1" ? Thanks!
// result 0.39

// query Could you please provide reported log10 of IC50 for "CNCCCS(=O)(=O)N1CC[C@H](NC(=O)c2cc(C3CC3)on2)C[C@@H]1C" ? Thanks!
// result -1.88

// query Could you please provide reported log10 of IC50 for "O=C(N[C@@H]1C[C@H]2CC[C@@H](C1)N2C(=O)CC1CCNCC1)c1cc(C2CC2)on1" ? Thanks!
// result 0.99

// query Could you please provide reported log10 of IC50 for CCC1(C(=O)N2CCC(NC(=O)c3cc(C4CC4)on3)C[C@H]2C)CCNCC1 (stereo partly drawn) ? Thanks!
// result 0.50

// query Could you please provide reported log10 of IC50 for "CCOC(=O)CS(=O)(=O)N1CC[C@H](NC(=O)c2cc(C3CC3)on2)C[C@@H]1C" ? Thanks!
// result 0.07

// query Could you please provide reported log10 of IC50 for "NC[C@@H](Cc1ccc(O)c(Cl)c1)C(=O)N1CCC(NC(=O)c2cc(C3CC3)on2)CC1" ? Thanks!
// result -0.86

// query Could you please provide reported log10 of IC50 for "N[C@@H](Cc1ccc(O)c(I)c1)C(=O)N1CCC(NC(=O)c2cc(C3CC3)on2)CC1" ? Thanks!
// result -0.94

// query Could you please provide reported log10 of IC50 for C[C@@H]1CC(NC(=O)c2cc(C3CC3)on2)CCN1C(=O)CC1(O)CCNCC1 (stereo partly drawn) ? Thanks!
// result -0.04

// query Could you please provide reported log10 of IC50 for "C[C@@H]1C[C@H](NC(=O)c2cc(C3CC3)on2)CCN1S(=O)(=O)c1ccccc1" ? Thanks!
// result 0.49

// query Could you please provide reported log10 of IC50 for NCCCC(=O)N1CC2CCC1CC2NC(=O)c1cc(C2CC2)on1 (stereo not drawn) ? Thanks!
// result 0.74

// query Could you please provide reported log10 of IC50 for "O=C(N[C@H]1C[C@H]2CC[C@@H](C1)N2S(=O)(=O)c1ccc2[nH]c(=O)oc2c1)c1cc(C2CC2)on1" ? Thanks!
// result 0.97

// query Could you please provide reported log10 of IC50 for "C[C@H](N)CC(=O)NC[C@H](Cc1ccc(O)c(I)c1)C(=O)N1CCC(NC(=O)c2cc(C3CC3)on2)CC1" ? Thanks!
// result -0.33

// query Could you please provide reported log10 of IC50 for C[C@@H]1CC(NC(=O)c2cc(C3CC3)on2)CCN1C(=O)CC1CCCC(N)C1 (stereo partly drawn) ? Thanks!
// result -0.39

// query Could you please provide reported log10 of IC50 for C[C@H]1CC(NC(=O)c2cc(C3CC3)on2)CCN1C(=O)CCN1CCCC1 (stereo partly drawn) ? Thanks!
// result 1.09

// query Could you please provide reported log10 of IC50 for CCOC(=O)C1CN(C(=O)CCCN)CCC1NC(=O)c1cc(C2CC2)on1 (stereo not drawn) ? Thanks!
// result 0.35

// query Could you please provide reported log10 of IC50 for CCOC(=O)[C@@H]1CC(NC(=O)c2cc(C3CC3)on2)CCN1C(=O)[C@H]1CC[C@H](N)CC1 (stereo partly drawn) ? Thanks!
// result 0.85

// query Could you please provide reported log10 of IC50 for "C[C@@H]1C[C@H](NC(=O)c2cc(C3CC3)on2)CCN1S(=O)(=O)CCCN" ? Thanks!
// result -1.25

// query Could you please provide reported log10 of IC50 for "O=C(N[C@H]1C[C@H]2CC[C@@H](C1)N2C(=O)CC1CCNCC1)c1cc(C2CC2)on1" ? Thanks!
// result 0.11

// query Could you please provide reported log10 of IC50 for CC1CNCCC1CC(=O)N1CCC(NC(=O)c2cc(C3CC3)on2)C[C@@H]1C (stereo partly drawn) ? Thanks!
// result 0.20
